Details: human

compound	Hepatotoxicity (cytolytic)
CC1(C)S[C@@H]2[C@H](NC(=O)[C@H](N)c3ccccc3)C(=O)N2[C@H]1C(=O)OCOC(=O)[C@@H]1N2C(=O)C[C@H]2S(=O)(=O)C1(C)C [SULTAMICILLIN]	0
Cc1onc(-c2ccccc2Cl)c1C(=O)N[C@@H]1C(=O)N2[C@@H]1SC(C)(C)[C@@H]2C(=O)O [CLOXACILLIN]	0
C[C@H](CSC(=O)c1ccccc1)C(=O)N1C[C@@H](Sc2ccccc2)C[C@H]1C(=O)O [ZOFENOPRIL]	0
C=CC1=C(C(=O)O)N2C(=O)[C@@H](NC(=O)/C(=N\O)c3csc(N)n3)[C@H]2SC1	0
CCOC(=O)[C@H](CCc1ccccc1)N[C@@H](C)C(=O)N1[C@H](C(=O)O)C[C@H]2CCCC[C@@H]21 [TRANDOLAPRIL]	0
C(=N\NC1=NCCN1)/c1c2ccccc2c(/C=N/NC2=NCCN2)c2ccccc12 [BISANTRENE]	0
O=C(N[C@H](CO)[C@H](O)c1ccc([N+](=O)[O-])cc1)C(Cl)Cl [CHLORAMPHENICOL]	2
CCCCCCCCNC(C)C(O)c1ccc(SC(C)C)cc1 (stereo not drawn) [SULOCTIDIL]	7

----------
Details: human, serum

compound	Hepatotoxicity (acute)
CCN1CC(CCN2CCOCC2)C(c2ccccc2)(c2ccccc2)C1=O (stereo not given)	1
Nc1nc(/C(=C/CC(=O)O)C(=O)N[C@@H]2C(=O)N3C(C(=O)O)=CCS[C@H]23)cs1	0
CO/N=C(\C(=O)N[C@@H]1C(=O)N2C(C(=O)O)=C(CSc3nc(C)c(CC(=O)O)s3)CS[C@H]12)c1csc(N)n1	0
CCOC(N)=O	5
CN1CCN(CCCN2c3ccccc3Sc3ccccc32)CC1	3
CCOC(=O)C(C)(C)Oc1ccc(Cl)cc1 [CLOFIBRATE]	3
CC(=O)O[C@@]12CO[C@@H]1C[C@H](O)[C@@]1(C)C(=O)[C@H](O)C3=C(C)[C@@H](OC(=O)[C@H](O)[C@@H](NC(=O)OC(C)(C)C)c4ccccc4)C[C@@](O)([C@@H](OC(=O)c4ccccc4)[C@H]21)C3(C)C.O.O.O	4
CCCN(CCC)C(=O)Cc1c(-c2ccc(Cl)cc2)nc2ccc(Cl)cn12	5
CC(=O)O[C@]1(C(C)=O)CC[C@H]2[C@@H]3C=C(C)C4=CC(=O)CC[C@]4(C)[C@H]3CC[C@@]21C [MEGESTROL ACETATE]	1
CN(C)[C@@H]1C(O)=C(C(N)=O)C(=O)[C@@]2(O)C(O)=C3C(=O)c4c(O)cccc4[C@@](C)(O)[C@H]3C[C@@H]12	10
C[C@]1(O)CC[C@H]2[C@@H]3CCC4=CC(=O)CC[C@]4(C)[C@@]3(F)[C@@H](O)C[C@@]21C	2
CCOC(=O)[C@H](CCc1ccccc1)N[C@@H](C)C(=O)N(CC(=O)O)C1Cc2ccccc2C1	0
CN(C)Cc1ccc(CSCCN/C(=C\[N+](=O)[O-])NCc2ccc3c(c2)OCO3)o1	2
CCc1c(C)[nH]c2c1C(=O)C(CN1CCOCC1)CC2 (stereo not given)	1
NC(=O)c1ncn([C@@H]2O[C@H](CO)[C@@H](O)[C@H]2O)n1	2
CCOC(=O)C1=C(C)NC(C)=C(C(=O)OC)C1c1cccc([N+](=O)[O-])c1 (stereo not given)	1
Cc1ccc(C(=O)c2ccc(CC(=O)O)n2C)cc1	1
CN(C/C=C/C#CC(C)(C)C)Cc1cccc2ccccc12	23
Nc1ccc(C(=O)O)c(O)c1	17
CC1(C)S[C@@H]2[C@H](NC(=O)[C@H](C(=O)O)c3ccsc3)C(=O)N2[C@H]1C(=O)O	0
C[C@H](CS)C(=O)N1CCC[C@H]1C(=O)O	26
C[C@]12COC(=O)C[C@@H]1CC[C@@H]1[C@@H]2CC[C@@]2(C)[C@H]1CC[C@]2(C)O	2
CN(C)CCN1C(=O)c2cccc3cc(N)cc(c23)C1=O [AMONAFIDE]	0
Cc1c(C)c2c(c(C)c1O)CC[C@@](C)(CCC[C@H](C)CCC[C@H](C)CCCC(C)C)O2	3
CO[C@H](C(=O)[C@@H](O)[C@@H](C)O)[C@@H]1Cc2cc3cc(O[C@H]4C[C@@H](O[C@H]5C[C@@H](O)[C@H](O)[C@@H](C)O5)[C@H](O)[C@@H](C)O4)c(C)c(O)c3c(O)c2C(=O)[C@H]1O[C@H]1C[C@@H](O[C@H]2C[C@@H](O[C@H]3C[C@](C)(O)[C@H](O)[C@@H](C)O3)[C@@H](O)[C@@H](C)O2)[C@H](O)[C@@H](C)O1	6
CO[C@H]1/C=C/O[C@@]2(C)Oc3c(C)c(O)c4c(O)c(c(/C=N/N5CCN(C)CC5)c(O)c4c3C2=O)NC(=O)/C(C)=C\C=C\[C@H](C)[C@H](O)[C@@H](C)[C@@H](O)[C@@H](C)[C@H](OC(C)=O)[C@@H]1C	38
O=NN(CCCl)C(=O)N[C@H]1C(O)O[C@H](CO)[C@@H](O)[C@@H]1O (stereo not given in full)	2
CO[C@@H]1[C@@H](OC(N)=O)[C@@H](O)[C@H](Oc2ccc3c(O)c(NC(=O)c4ccc(O)c(CC=C(C)C)c4)c(=O)oc3c2C)OC1(C)C	5
O=c1[nH]c2ccccc2n1CCCN1CCN(C(c2ccccc2)c2ccccc2)CC1 [OXATOMIDE]	4
Cc1cccc(N2CC(CO)OC2=O)c1 (stereo not given)	2
